Entry source: PubChem BioAssay (EPA / NIEHS)

# Assayed Target: CCAAT/enhancer-binding protein beta (Homo sapiens)
# Protocol Details: ATG_C_EBP_CIS: Attagene CIS-FACTORIAL HepG2 Assay for human CCAAT/Enhancer Binding Protein (C/EBP) beta (AID 2282927)
# Experimental Conditions: HepG2 Attagene cis-factorial transcription factor reporter; actives raise or lower the signal
Calls of active or inactive are those of the source. The calls were made as follows: active = hit-call score of the fitted dose curve at least 0.9, where 1 is the maximum; inactive = score below 0.9.
The categories you may choose from are active, inactive

Record excerpt, results attached:
{"Molecule": "C=C(C)C(=O)OCCOC(=O)CC(C)=O", "Label": "inactive"}
{"Molecule": "C=CC[N+](C)(C)CC=C", "Label": "inactive"}

Kindly consider the entry below.
Recorded call for CC(=O)c1c(C)cc(C(C)(C)C)cc1C ? inactive

---

# Protocol Details: ATG_PPRE_CIS: Attagene CIS-FACTORIAL HepG2 Assay for human Peroxisome Proliferator-activated Response Element (PPRE) (AID 2282958)
# Experimental Conditions: HepG2 PPRE cis-element reporter, Attagene transcription factor profiling; actives raise or lower the signal
The source made the active and inactive calls. The calls were made as follows: active = hit-call score of the fitted dose curve at least 0.9, where 1 is the maximum; inactive = score below 0.9.
The categories you may choose from are active, inactive

Record excerpt, results attached:
{"Molecule": "CC(C)c1cccc(O)c1", "Label": "inactive"}
{"Molecule": "NC(=O)c1ccccc1Cl", "Label": "inactive"}

Recorded call for NCCCN1CCOCC1 ? inactive

---

# Protocol Details: ATG_CMV_CIS: Attagene CIS-FACTORIAL HepG2 Assay for human CMV (Internal Marker) (AID 2282928);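 also: endpoint acts as a background internal control marker rather than a target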
# Experimental Conditions: HepG2 CMV promoter reporter, transcription factor profiling; actives raise or lower the signal
Calls of active or inactive are those of the source. The calls were made as follows: active = hit-call score of the fitted dose curve at least 0.9, where 1 is the maximum; inactive = score below 0.9.
The categories you may choose from are t (active), f (inactive)

Record excerpt, results attached:
{"Compound": "FC1(F)C(F)(F)C(F)(F)C2(F)C(F)(C1(F)F)C(F)(F)C(F)(F)C1(F)C(F)(F)C(F)(F)C(F)(F)C(F)(F)C12F (stereo not drawn)", "Label": "f"}
{"Compound": "CCOc1ccccc1OCC", "Label": "f"}
{"Compound": "CC(=O)[O][Al][O]C(C)=O", "Label": "f"}
{"Compound": "CC(C)C(C)(C)C(C)(C)C(C)(C)S", "Label": "f"}
{"Compound": "NCCCCCCN", "Label": "f"}

Recorded call for C=C(C)C(=O)OCc1ccccc1 ? f

Please answer likewise for O=[N+]([O-])c1ccc(C=Cc2ccc([N+](=O)[O-])cc2S(=O)(=O)O)c(S(=O)(=O)O)c1 f

Please answer likewise for NC(=O)NC1NC(=O)NC1=O (stereo not drawn) f

---

# Protocol Details: ATG_Sox_CIS: Attagene CIS-FACTORIAL HepG2 Assay for human SRY-box transcription factor (SOX) (AID 2282960)
# Experimental Conditions: HepG2 Attagene cis-factorial SOX reporter, mRNA; actives raise or lower the signal
Active and inactive are the calls of the source. How the source made its calls: active means hit-call score of the fitted dose curve at least 0.9, where 1 is the maximum; inactive means score below 0.9.
The categories you may choose from are 1 for active, 0 for inactive

Record excerpt, results attached:
{"Molecule": "CC(=O)Nc1ccc(C)cc1C", "Label": 0}
{"Molecule": "CO[Si](CCCn1c(=O)n(CCC[Si](OC)(OC)OC)c(=O)n(CCC[Si](OC)(OC)OC)c1=O)(OC)OC", "Label": 0}
{"Molecule": "S=C(S)NCCNC(=S)S", "Label": 0}
{"Molecule": "C=CC(=O)OCCOCCOCC", "Label": 0}
{"Molecule": "O=C[C@H](O)[C@H](O)[C@H](O)CO", "Label": 0}
{"Molecule": "COc1cc(C(C)(C)C)c(O)c(C(C)(C)C)c1", "Label": 0}
{"Molecule": "C=CC(C)(C)O", "Label": 0}
{"Molecule": "CN(C)c1ccc(O)c2c1C[C@H]1C[C@H]3[C@H](N(C)C)C(=O)C(C(N)=O)=C(O)[C@@]3(O)C(=O)C1=C2O", "Label": 0}
{"Molecule": "CCC(=O)/C=C/C1C(C)=CCCC1(C)C (stereo not given)", "Label": 0}
{"Molecule": "O=Cc1ccc(Cl)c([N+](=O)[O-])c1", "Label": 1}

Recorded call for O=C(O)c1cccc(C(F)(F)F)c1 ? 0

Please answer likewise for COc1cc(C)cc(O)c1 0

Please answer likewise for COC(=O)Cc1cccc2ccccc12 0

Please answer likewise for OCCCCCO 0

Please answer likewise for CCOC(=O)c1ccccc1OC 0

Please answer likewise for O=Cc1ccc(F)cc1 0
